- System: OVCAR-3
- experiment: NCI tumour cell line growth inhibition, 48 h
Activity calls are given as the source filed them. No stated cut-off is given here; in the data, active = GI50 up to about 1.1 µM and inactive = higher.
readout: GI50

Would you please look over these solved cases?
{"compound": "O=C1CSC(c2ccc(Cl)cc2)N1c1ccc(-c2ccc(-n3c(-c4ccccc4)nc4ccccc4c3=O)cc2)cc1 (configuration not stated)", "GI50": "> 100 µM (inactive)"}
{"compound": "O=c1[nH]c(=O)n(C2CC(O)C(CO)O2)c2nc3ccc4cc5ccccc5cc4c3nc12 (configuration not stated)", "GI50": "> 100 µM (inactive)"}
{"compound": "CCCCN(C)/N=N/c1[nH]cnc1C(N)=O", "GI50": "99.5 µM (inactive)"}
{"compound": "CCOC(=N)CC(=O)Nc1cccc(C)c1C", "GI50": "> 100 µM (inactive)"}
{"compound": "C1CSC(=[N+]2CC[N+](=C3SCCS3)CC2)S1", "GI50": "> 100 µM (inactive)"}

// query GI50 value for entry `O=C(O)Cc1ccc2c(c1O)C(=O)c1c(ccc(CC(=O)O)c1O)C2=O`
> 100 µM (inactive)

Please look up its GI50: OCC1C(OCc2ccccc2)C(OCc2ccccc2)C(OCc2ccccc2)CN1Cc1ccccc1 (configuration not stated)
47.5 µM (inactive)

Please report the recorded GI50 for COc1cc(S(=O)(=O)Nc2ccc(-c3csc(N4C(=O)C(C)SC4c4ccccc4O)n3)cc2)ccc1Cl (configuration not stated) .
69.5 µM (inactive)

Entry `CO[P@@]1(=O)O[C@@H](c2ccccc2)[C@H](O)[C@@]1(O)c1ccccc1` : reported GI50 = ?
> 100 µM (inactive)

If you can, please state the reported GI50 value of `O/N=C(\CC(O)(C(F)(F)F)C(F)(F)F)c1cccs1` .
> 10 µM (inactive)

If you can, please state the reported GI50 value of `CN(C)C(=S)/N=c1\ss/c(=N\C(=S)N(C)C)n1-c1cccc(Cl)c1` .
> 100 µM (inactive)

Please give the measured GI50 for this compound: `CCOC(=O)CCCN`
> 100 µM (inactive)

Given the compound `CN1CCN(CCCNN)CC1` , what is its reported GI50?
> 100 µM (inactive)

Which value of GI50 has been reported for O=C1C(c2ccccc2)=C(c2ccccc2)C(c2ccccc2)/C1=C1\C(=O)C(c2ccccc2)=C(c2ccccc2)C1c1ccccc1 (configuration not stated) in the records?
> 100 µM (inactive)

###

- Test system: MOLT-4
- experiment: NCI tumour cell line growth inhibition, 48 h
Active and inactive are the calls of the source. Cut-off read from the data, not from the text of the source: active = GI50 up to about 1.1 µM and inactive = higher.
Hi there, use one of these labels in your reply, thanks! YES for active, NO for inactive

{"molecule": "N=C(N)NCCCC(NC(=O)OCCCCCn1ccc(N)nc1=O)C(=O)O (stereo not given)", "assigned class": "NO"}

Could you kindly confirm the outcome this assay logged for `Nc1c(Br)c(=O)[nH]c(=O)n1COCCO` ?
NO

So what was the verdict on `CCCCCCOc1ccc(NC2=C(Cl)C(=O)c3c(O)ccc(O)c3C2=O)cc1` in this test?
NO

Status in this test for `C=C(C)[C@@]1(O)O[C@H]2C[C@@]3(C)OC(=CC3=O)/C(C)=C\[C@@H]3OC(=O)[C@@]1(C)[C@H]32` ?
NO

Please share the test call associated with `O=C(O)c1ccccc1C1c2ccccc2Oc2ccccc21` .
NO

Assay outcome for `COc1ccc(CCc2cc(OC)c(OC)c(OC)c2)cc1` : what was it?
YES
